Hey, just so you know, these numbers are from patent US20240043563A1.

target: MASP-2-CCS-Flag (human) (UniProt O00187); assay: SPR, Biacore T200, antibody captured on Protein A chip, MASP-2-CCS-Flag as analyte
Sequence (O00187 other isoform, or with tags, fused parts or gaps limits assumed, form in doubt): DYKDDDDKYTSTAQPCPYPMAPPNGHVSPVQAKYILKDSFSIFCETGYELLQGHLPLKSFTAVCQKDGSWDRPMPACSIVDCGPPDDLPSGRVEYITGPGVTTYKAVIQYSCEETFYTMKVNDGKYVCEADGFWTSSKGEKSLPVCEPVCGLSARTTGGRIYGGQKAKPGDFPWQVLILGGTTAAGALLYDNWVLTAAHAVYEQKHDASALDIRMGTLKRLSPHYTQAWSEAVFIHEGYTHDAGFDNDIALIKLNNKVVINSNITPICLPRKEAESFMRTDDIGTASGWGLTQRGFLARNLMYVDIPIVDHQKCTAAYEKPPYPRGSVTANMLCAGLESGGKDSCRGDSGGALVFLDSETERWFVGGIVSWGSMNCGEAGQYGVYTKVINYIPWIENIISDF
assay_endpoint: pKd
Reminder that pKd means the negative base-10 logarithm of the concentration expressed in mol/L.

Recorded pKd, per entry:
- binder: "humanized anti-human MASP-2 monoclonal antibody 124-Hu (antibody, human IgG4 S228P, kappa, V domains shown) VH: QVQLQESGPGLVKPSQTLSLTCTVSGYSITSDYAWNWIRQPPGKGLEWMGYISYSGRTSYNPSLKSRLTISRDTSKNQFSLKLSSVTAADTAVYYCARHYGDFWGQGTTVTVSS VL: DIQMTQSPSSLSASVGDRVTITCKASQNVDTNVAWYQQKPGKAPKLLIYSASYRYSGVPSRFSGSGSGTDFTLTISSLQPEDFATYYCQQYNSYPSTFGQGTKLEIKR"
  pKd: 9.46
- binder: "humanized anti-human MASP-2 monoclonal antibody 126-Hu (antibody, human IgG4 S228P, kappa, V domains shown) VH: QVQLVESGGGVVQPGRSLRLSCAASGFTFSSFGMHWVRQAPGKGLEWVAYISSGSSSSFYVDTVKGRFTISRDNSKNTLYLQMNSLRAEDTAVYYCARGDRNFEVWGQGTTVTVSS VL: DIQMTQSPSSLSASVGDRVTITCRASQSVSSSRYSYMHWFQQKPGKAPKLLIYHASNLESGVPSRFSGSGSGTDFTLTISSLQPEDFATYYCQQSWEVPWTFGQGTKLEIKR"
  pKd: 9.83

Field: next binder
GET /values?readout=pKd&item= humanized anti-human MASP-2 monoclonal antibody 100-Hu (antibody, human IgG4 S228P, kappa, V domains shown) VH: QVQLVESGGGVVQPGGSLRLSCAASGFTFSNFGIHWVRQAPGKGLEWVAYISSGGSAVFYADTVKGRFTISRDNSKNTLYLQMNSLRAEDTAVYYCAKSDRYFDYWGQGTTVTVSS VL: EIVLTQSPATLSLSPGERATLSCRASQSVSSSSYRYIHWYQQKPGQAPRLLIYYASNLESGIPARFSGSGSGTDFTLTISSLEPEDFAVYYCQHSWETPWTFGQGTKLEIKR
9.15
